The reported measurements were obtained from the supplement of paper PMC10567573.

Give protein stability index for every item shown.
B1: PPFIA4 (parent)
chain: PGVHRRYSALREESAKDWETSPLP

Variants of: B1
Test Protocol: protein stability index of a GFP-peptide fusion (GPS, HEK-293T) (PSI 1-6); higher = more stable;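 note: lentivirally expressed fusions sorted by FACS into six bins by GFP to DsRed ratio, PSI derived from sequencing read proportions per bin multiplied by bin number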
Experimental Context: c terminus: a fixed tail appended

protein stability index for `R5G` is 3.96

# protein stability index of `K16D` = 4.45

Lab note: `T20L` gave protein stability index of 3.36

variant `S21Y` , protein stability index observed: 3.2

Lab note: measured protein stability index of `A15Y` was 3.32

Measured protein stability index, `W18R` : 4.42

# variant `E12I` ; its protein stability index = 3.21

Sure, the documented protein stability index for `L10M` is 4.31

Noted for `A9H` : its protein stability index reads 3.92

Documented protein stability index of `A15D` : 4.92

The measured protein stability index associated with `R5A` reads 4.86

Note to self: protein stability index recorded for `S14E` was 4.69

For this variant ( `W18M` ), measured protein stability index is 5.08

Value of measured protein stability index for the entry `R6H` : 3.65

Item: `Y7P` | protein stability index: 4.24

The recorded protein stability index for `S21E` is 4.5
